From: patent US10071965B2

# pIC50 annotations
TEST SYSTEM: M. tuberculosis enoyl-ACP reductase InhA (Mycobacterium tuberculosis (strain ATCC 25618 / H37Rv), UniProt P9WGR1)
EXPERIMENTAL DETAILS: InhA inhibition kinetics
Format: biochemical
pIC50: −log10 of the molar value.
QUANTITY NAME: pIC50

molecule="CCCCCCc1cc(=O)c(Oc2ccc(N)cc2)cn1C [PT157]" result_modifier== obs_value=6.37
molecule="CCCCCCc1cc(=O)c(Oc2ccccc2C#N)cn1C [PT159]" result_modifier== obs_value=6.20
molecule="CCCCCCc1ccn(Cc2ccccc2C)c(=O)c1 [PT171]" result_modifier== obs_value=6.89
molecule="CCCCCCc1cc(=O)c(Oc2cccnc2F)cn1C [PT190]" result_modifier== obs_value=6.19
molecule="Cc1ccn(Cc2ccccc2Cl)c(=O)c1 [PT170]" result_modifier=< obs_value=5.77
molecule="CCCCCCc1cc(=O)c(Oc2cccnc2N)cn1C [PT169]" result_modifier== obs_value=6.42
molecule="CCCCCCc1cc(=O)c(Oc2ccccn2)cn1C [PT168]" result_modifier== obs_value=5.75
molecule="CCCCCCc1cc(=O)c(Oc2cccnc2C#N)cn1C [PT167]" result_modifier== obs_value=6.01
molecule="CCCCCCc1ccn(Cc2ccccc2Cl)c(=O)c1 [PT172]" result_modifier== obs_value=6.62
molecule="CCCCCCc1cc(=O)c(Oc2ccc([N+](=O)[O-])cc2)cn1C [PT156]" result_modifier== obs_value=6.39
molecule="CCCCCCc1cc(=O)c(Oc2ccccc2C)cn1C [PT166]" result_modifier== obs_value=7.54
molecule="CCCCCCc1ccn(Cc2cccc(N)c2C)c(=O)c1 [PT173]" result_modifier=< obs_value=5.49
molecule="CCCCCCc1cc(=O)c(Oc2ccc(N)cc2C)cn1C [PT155]" result_modifier== obs_value=6.97
molecule="Cc1cc([N+](=O)[O-])ccc1Oc1cn(C)c(CCl)cc1=O [PT152]" result_modifier== obs_value=5.65
molecule="CCCCCCc1ccn(Cc2cccnc2F)c(=O)c1 [PT175]" result_modifier=< obs_value=5.40

---

EXPERIMENTAL DETAILS: in vivo
CONDITION CONTEXT: female, ICR, mouse, ip, 100 mg/kg
QUANTITY NAME: Tmax (min)

smiles_repr=CCCCCCc1cc(=O)c(Oc2ccccc2C)cn1C quantity_name=Tmax value_units=min obs_value=15

---

List of IC50 values.
TEST SYSTEM: saFabI (Staphylococcus aureus (strain MRSA252), UniProt Q6GI75)
EXPERIMENTAL DETAILS: saFabI inhibition kinetics
QUANTITY NAME: IC50 (nM)

smiles_repr=Cc1ccn(Cc2ccccc2Cl)c(=O)c1 quantity_name=IC50 value_units=nM result_modifier=> obs_value=1000
smiles_repr=CCCCCCc1ccn(Cc2ccc(F)cc2)c(=O)c1 quantity_name=IC50 value_units=nM result_modifier== obs_value=222
smiles_repr=CCCCCCc1ccc(Oc2ccccc2)c(=O)[nH]1 quantity_name=IC50 value_units=nM result_modifier=> obs_value=2000
smiles_repr=CCCCCCc1ccn(Cc2cccc(N)c2C)c(=O)c1 quantity_name=IC50 value_units=nM result_modifier== obs_value=68
smiles_repr=CCCCCCc1ccn(Cc2ccccc2Cl)c(=O)c1 quantity_name=IC50 value_units=nM result_modifier== obs_value=379
smiles_repr=CCCCCCc1ccn(Cc2cccnc2F)c(=O)c1 quantity_name=IC50 value_units=nM result_modifier=> obs_value=1000

---

# pIC50 per entry
TEST SYSTEM: Francisella tularensis FabI (Francisella tularensis subsp. tularensis (strain SCHU S4 / Schu 4))
EXPERIMENTAL DETAILS: biochemical
pIC50: −log10 of the molar value.
QUANTITY NAME: pIC50

smiles_repr=CCCCCCc1cc(=O)c(Oc2ccccc2C)cn1C obs_value=7.62
smiles_repr=Cc1ccn(Cc2ccccc2Cl)c(=O)c1 obs_value=6.69
smiles_repr=CCCCCCc1ccn(Cc2ccccc2Cl)c(=O)c1 obs_value=7.21
smiles_repr=CCCCCCc1ccn(Cc2cccc([N+](=O)[O-])c2C)c(=O)c1 obs_value=7.07
smiles_repr=CCCCCCc1ccn(Cc2ccccc2C#N)c(=O)c1 obs_value=6.14
smiles_repr=CCCCCCc1ccn(Cc2ccccc2C)c(=O)c1 obs_value=7.08

---

molecules and their reported Ki
TEST SYSTEM: saFabI (Staphylococcus aureus (strain MRSA252), UniProt Q6GI75)
EXPERIMENTAL DETAILS: saFabI inhibition kinetics
Format: biochemical
CONDITION CONTEXT: Staphylococcus aureus Ki (nM), 4-pyridones table
QUANTITY NAME: Ki (nM)

smiles_repr=CCCCCCc1cc(=O)c(Oc2ccccc2C#N)cn1C obs_value=11
smiles_repr=CCCCCCc1cc(=O)c(Oc2ccccc2C)cn1C obs_value=2.7

---

TEST SYSTEM: saFabI (Staphylococcus aureus (strain MRSA252))
EXPERIMENTAL DETAILS: saFabI inhibition kinetics
IC50 class ranges: zone 1 (below 200 nM), zone 2 (200 nM to below 400 nM), zone 3 (400 nM or more)

smiles_repr=CCCCCCc1ccn(Cc2ccccc2F)c(=O)c1 test_system="saFabI (Staphylococcus aureus (strain MRSA252))" category_label="zone 1"
smiles_repr=CCCCCCc1ccn(Cc2ccccc2C)c(=O)c1 test_system="saFabI (Staphylococcus aureus (strain MRSA252))" category_label="zone 1"
smiles_repr=CCCCCCc1ccn(Cc2cccc(F)c2)c(=O)c1 test_system="saFabI (Staphylococcus aureus (strain MRSA252))" category_label="zone 2"
smiles_repr=CCCCCCc1ccn(Cc2ccc(N)cc2)c(=O)c1 test_system="saFabI (Staphylococcus aureus (strain MRSA252))" category_label="zone 2"
smiles_repr=CCCCCCc1ccn(Cc2ccccc2)c(=O)c1 test_system="saFabI (Staphylococcus aureus (strain MRSA252))" category_label="zone 1"
smiles_repr=CCCCCCc1ccn(Cc2ccc([N+](=O)[O-])cc2)c(=O)c1 test_system="saFabI (Staphylococcus aureus (strain MRSA252))" category_label="zone 3"
smiles_repr=CCCCCCc1ccn(Cc2ccccc2C#N)c(=O)c1 test_system="saFabI (Staphylococcus aureus (strain MRSA252))" category_label="zone 3"
smiles_repr=CCCCCCc1ccn(Cc2ccc(Cl)cc2)c(=O)c1 test_system="saFabI (Staphylococcus aureus (strain MRSA252))" category_label="zone 1"
smiles_repr=CCCCCCc1ccn(Cc2cccc([N+](=O)[O-])c2C)c(=O)c1 test_system="saFabI (Staphylococcus aureus (strain MRSA252))" category_label="zone 2"

---

TEST SYSTEM: bpFabI (Burkholderia pseudomallei, UniProt A0A0H3HP34)
EXPERIMENTAL DETAILS: biochemical
Let's look at some molecules and their measured IC50.
QUANTITY NAME: IC50 (nM)

smiles_repr=CCCCCCc1cc(=O)c(Oc2ccc([N+](=O)[O-])cc2)cn1C test_system="bpFabI (Burkholderia pseudomallei, UniProt A0A0H3HP34)" quantity_name=IC50 value_units=nM result_modifier== obs_value=960
smiles_repr=CCCCCCc1cc(=O)c(Oc2ccc(N)cc2C)cn1C test_system="bpFabI (Burkholderia pseudomallei, UniProt A0A0H3HP34)" quantity_name=IC50 value_units=nM result_modifier== obs_value=140
smiles_repr=CCCCCCc1ccn(Cc2ccccc2Cl)c(=O)c1 test_system="bpFabI (Burkholderia pseudomallei, UniProt A0A0H3HP34)" quantity_name=IC50 value_units=nM result_modifier== obs_value=260
smiles_repr=CCCCCCc1ccn(Cc2cccc(N)c2C)c(=O)c1 test_system="bpFabI (Burkholderia pseudomallei, UniProt A0A0H3HP34)" quantity_name=IC50 value_units=nM result_modifier== obs_value=460
smiles_repr=CCCCCCc1ccn(Cc2cccnc2F)c(=O)c1 test_system="bpFabI (Burkholderia pseudomallei, UniProt A0A0H3HP34)" quantity_name=IC50 value_units=nM result_modifier=> obs_value=1000
smiles_repr=CCCCCCc1ccc(Oc2ccccc2)c(=O)[nH]1 test_system="bpFabI (Burkholderia pseudomallei, UniProt A0A0H3HP34)" quantity_name=IC50 value_units=nM result_modifier=> obs_value=3000
smiles_repr=Cc1ccn(Cc2ccccc2Cl)c(=O)c1 test_system="bpFabI (Burkholderia pseudomallei, UniProt A0A0H3HP34)" quantity_name=IC50 value_units=nM result_modifier=> obs_value=1000

---

Some compounds, each annotated with its measured pKi.
TEST SYSTEM: saFabI (Staphylococcus aureus (strain MRSA252), UniProt Q6GI75)
EXPERIMENTAL DETAILS: saFabI inhibition kinetics
Format: biochemical
CONDITION CONTEXT: Staphylococcus aureus Ki (in brackets under IC50), 2-pyridones table
pKi: −log10 of the molar value.
QUANTITY NAME: pKi

smiles_repr=CCCCCCc1ccn(Cc2ccccc2Cl)c(=O)c1 obs_value=7.96
smiles_repr=Cc1ccn(Cc2ccccc2Cl)c(=O)c1 obs_value=6.64
smiles_repr=CCCCCCc1ccn(Cc2ccccc2C)c(=O)c1 obs_value=7.92
smiles_repr=CCCCCCc1ccn(Cc2ccccc2)c(=O)c1 obs_value=7.72
smiles_repr=CCCCCCc1ccn(Cc2ccccc2C#N)c(=O)c1 obs_value=7.53
smiles_repr=CCCCCCc1ccc(Oc2ccccc2)c(=O)[nH]1 obs_value=6.71
smiles_repr=CCCCCCc1ccn(Cc2cccc(N)c2C)c(=O)c1 obs_value=8.70
